system: L1210; assay: Inhibitory effect on the proliferation of murine leukemia (L1210 ) cells; assay type: functional; details: Mus musculus, read-out: ID50 (the source's name)
endpoint.name: IC50 (µg/mL)

smiles.notation: Cl.Cl.Cn1cc(NC(=O)c2cc(NC(=O)CCCCCC(=O)Nc3cc(C(=O)Nc4cc(C(=O)NCCC(=N)N)n(C)c4)n(C)c3)cn2C)cc1C(=O)NCCC(=N)N
experimental.system: L1210
value.unit: µg/mL
prefix.operator: >
observed: 100
//
smiles.notation: Cl.Cl.Cn1cc(NC(=O)c2cc(NC(=O)CCCCC(=O)Nc3cc(C(=O)Nc4cc(C(=O)NCCC(=N)N)n(C)c4)n(C)c3)cn2C)cc1C(=O)NCCC(=N)N
experimental.system: L1210
value.unit: µg/mL
prefix.operator: =
observed: 24.3
//
smiles.notation: Cn1cc(NC(=O)c2cc(NC(=O)c3cc(NC=O)cn3C)cn2C)cc1C(=O)NCCC(=N)N
experimental.system: L1210
value.unit: µg/mL
prefix.operator: =
observed: 27
//
smiles.notation: Cl.Cl.Cn1cc(NC(=O)c2cc(NC(=O)CCCC(=O)Nc3cc(C(=O)Nc4cc(C(=O)NCCC(=N)N)n(C)c4)n(C)c3)cn2C)cc1C(=O)NCCC(=N)N
experimental.system: L1210
value.unit: µg/mL
prefix.operator: >
observed: 100
//
smiles.notation: Cl.Cl.Cn1cc(NC(=O)c2cc(NC(=O)CCCCCCCCC(=O)Nc3cc(C(=O)Nc4cc(C(=O)NCCC(=N)N)n(C)c4)n(C)c3)cn2C)cc1C(=O)NCCC(=N)N
experimental.system: L1210
value.unit: µg/mL
prefix.operator: =
observed: 4.21
//
smiles.notation: Cl.Cl.Cn1cc(NC(=O)c2cc(NC(=O)CC(=O)Nc3cc(C(=O)Nc4cc(C(=O)NCCC(=N)N)n(C)c4)n(C)c3)cn2C)cc1C(=O)NCCC(=N)N
experimental.system: L1210
value.unit: µg/mL
prefix.operator: =
observed: 28.5
